test: Octanol/pH 7.4 buffer partition coefficient, shake flask; conditions: octanol/pH 7.4 buffer, pH 7.4
experimental readout: logD

QUERY: Can you look up the measured logD of `CC(C)NC(=N)NC(=N)Nc1ccc(Cl)c(Cl)c1` for me?
RESULT: 1.1

QUERY: Also `CC1(C)c2nc(-c3ccc(F)cc3)c(Nc3ccc(F)cc3)n2CCN1C(=O)CN` ?
RESULT: 2.06

QUERY: Also `CO[C@H]1O[C@@H]2O[C@@]3(C)CC[C@H]4[C@H](C)CC[C@@H]([C@H]1C)[C@@]24OO3` ?
RESULT: 3.7

QUERY: Also `CCc1nc(N)nc(N)c1-c1ccc(Cl)cc1` ?
RESULT: 2.41

QUERY: Also `Nc1ccc(S(=O)(=O)c2ccc(N)cc2)cc1` ?
RESULT: 0.86

QUERY: Also `CCN(CC)Cc1cc(Nc2ccnc3cc(Cl)ccc23)ccc1O` ?
RESULT: 2.95

QUERY: Also COc1cc(C)c2c(Oc3cccc(C(F)(F)F)c3)c(OC)cc(NC(C)CCCN)c2n1 (stereo not drawn) ?
RESULT: 4.24

QUERY: Also `CC[C@H]1OC(=O)[C@H](C)[C@@H](O[C@H]2C[C@@](C)(OC)[C@@H](O)[C@H](C)O2)[C@H](C)[C@@H](O[C@@H]2O[C@H](C)C[C@H](N(C)C)[C@H]2O)[C@](C)(O)C[C@@H](C)CN(C)[C@H](C)[C@@H](O)[C@]1(C)O` ?
RESULT: 1.1

QUERY: Also OC(c1cc(C(F)(F)F)nc2c(C(F)(F)F)cccc12)C1CCCCN1 (stereo not drawn) ?
RESULT: 2.7

====

So I've got a bunch of compounds here, and I need their fraction unbound at […], 500 ng/mL values.
target: Albumax medium (lipid rich bovine serum albumin) (Bos taurus, UniProt P02769); construct: purchased Gibco, Thermo Fisher Scientific; test: Binding in Albumax medium via ultracentrifugation; format: in vitro ADME; conditions: bovine, isolated protein, pH 7.4
Sequence (P02769 25-607): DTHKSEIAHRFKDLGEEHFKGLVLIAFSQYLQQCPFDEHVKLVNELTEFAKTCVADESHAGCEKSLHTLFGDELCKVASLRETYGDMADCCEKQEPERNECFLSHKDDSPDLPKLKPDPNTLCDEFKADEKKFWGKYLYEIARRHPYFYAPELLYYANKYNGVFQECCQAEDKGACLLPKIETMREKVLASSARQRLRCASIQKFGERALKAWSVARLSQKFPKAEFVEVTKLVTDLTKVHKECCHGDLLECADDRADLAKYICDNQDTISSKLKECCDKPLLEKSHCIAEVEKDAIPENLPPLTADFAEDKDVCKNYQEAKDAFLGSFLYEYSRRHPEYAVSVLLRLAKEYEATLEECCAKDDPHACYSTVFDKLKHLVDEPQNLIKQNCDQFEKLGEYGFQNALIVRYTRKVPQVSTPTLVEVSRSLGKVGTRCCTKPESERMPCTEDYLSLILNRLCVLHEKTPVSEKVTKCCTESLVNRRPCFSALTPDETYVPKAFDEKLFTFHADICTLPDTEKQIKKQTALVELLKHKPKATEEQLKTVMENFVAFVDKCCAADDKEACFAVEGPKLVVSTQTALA
Please reply with the number alone, leaving off any unit.

QUERY: Can you look up the measured fraction unbound at […], 500 ng/mL of `CC[C@H]1OC(=O)[C@H](C)[C@@H](O[C@H]2C[C@@](C)(OC)[C@@H](O)[C@H](C)O2)[C@H](C)[C@@H](O[C@@H]2O[C@H](C)C[C@H](N(C)C)[C@H]2O)[C@](C)(O)C[C@@H](C)CN(C)[C@H](C)[C@@H](O)[C@]1(C)O` for me?
RESULT: 0.76

QUERY: Also `Clc1ccc2c(N3CCN(CCCN4CCN(c5ccnc6cc(Cl)ccc56)CC4)CC3)ccnc2c1` ?
RESULT: 0.019

QUERY: Also `CCNCc1cc(Nc2ccnc3cc(Cl)ccc23)ccc1O` ?
RESULT: 0.75

QUERY: Also `CC(C)(N)CNC(=O)C[C@H]1CC[C@]2(CC1)OO[C@]1(O2)C2CC3CC(C2)CC1C3` ?
RESULT: 0.29

QUERY: Also `[H]/N=C(\N/C(=N/[H])Nc1ccc(Cl)cc1)NC(C)C` ?
RESULT: 0.8

QUERY: Also `C[C@H]1c2cccc(O)c2C(=O)C2=C(O)[C@]3(O)C(=O)C(C(N)=O)=C(O)[C@@H](N(C)C)[C@@H]3[C@@H](O)[C@@H]21` ?
RESULT: 0.41

QUERY: Also `CC1(C)c2nc(-c3ccc(F)cc3)c(Nc3ccc(F)cc3)n2CCN1C(=O)CN` ?
RESULT: 0.38

QUERY: Also COc1cc(NC(C)CCCN)c2ncccc2c1 (stereo not shown) ?
RESULT: 0.96

QUERY: Also `Cc1nc(Nc2ncc(N3CCN(C)[C@H](C)C3)c(Nc3cc(C)n(C)n3)n2)cc(C2CC2)c1F` ?
RESULT: 0.48

QUERY: Also `COc1ccc2nc3cc(Cl)ccc3c(Nc3cc(CN4CCCC4)c(O)c(CN4CCCC4)c3)c2n1` ?
RESULT: 0.69

QUERY: Also `COc1ncnc(NS(=O)(=O)c2ccc(N)cc2)c1OC` ?
RESULT: 0.5

QUERY: Also `CC(C)NC(=N)NC(=N)Nc1ccc(Cl)c(Cl)c1` ?
RESULT: 0.5

QUERY: Also `N#Cc1cc(NC(=O)[C@H]2c3ccccc3C(=O)N(CC(F)(F)F)[C@@H]2c2cccnc2)ccc1F` ?
RESULT: 0.4

QUERY: Also `C[C@H]1[C@H](N2CCS(=O)(=O)CC2)O[C@@H]2O[C@@]3(C)CC[C@H]4[C@H](C)CC[C@@H]1[C@@]24OO3` ?
RESULT: 0.46

QUERY: Also `CO[C@H]1O[C@@H]2O[C@@]3(C)CC[C@H]4[C@H](C)CC[C@@H]([C@H]1C)[C@@]24OO3` ?
RESULT: 0.46

QUERY: Also `CS(=O)(=O)c1ccc(-c2cnc(N)c(-c3ccc(C(F)(F)F)nc3)c2)cc1` ?
RESULT: 0.46

QUERY: Also `CC1(C)N=C(N)N=C(N)N1c1ccc(Cl)cc1` ?
RESULT: 0.88

QUERY: Also `C[C@H]1Cc2c([nH]c3cc(Cl)c(F)cc23)[C@@]2(N1)C(=O)Nc1ccc(Cl)cc12` ?
RESULT: 0.044

QUERY: Also `CCc1nc(N)nc(N)c1-c1ccc(Cl)cc1` ?
RESULT: 0.46
